Cited source for all entries: patent US20250326748A1

# System: MYB mRNA
# Assay text: Splicing RT-qPCR assay, MYB canonical (CJ) and alternative (AJ) junction mRNA
# Assay type: cell-based, human
# Applied conditions: Homo sapiens, canonical junction mRNA, qPCR panel; read-out: MYB CJ (decrease in CJ mRNA levels, IC50)
# Procedure: Compounds described herein were used to modulate RNA transcript abundance in cells. The expression of a target mRNA was measured by detecting the formation of an exon-exon junction in the canonical transcript (CJ). A compound mediated exon-inclusion event was detected by observing an increase in formation of a new junction with an alternative exon (AJ). Real-time qPCR assays were used to detect these splicing switches and interrogate the potency of various compounds towards different target genes. […]
Measured IC50, listed per entry.

{"columns": ["Compound", "IC50"],
 "data": [
  ["CNC1CCN(c2cnc3nc(-c4cc5cn(C)nc5c(C)c4O)ccc3c2)C1 (stereo not shown) [Compound 113]", "< 100 nM"]
]}

Need IC50 of Cn1cc2cc(-c3cc(Cl)c4cc(N5CCNCC5)cnc4n3)cc(F)c2n1 [Compound 103] , thanks.
< 100 nM

Need IC50 of Cc1cn2nc(-c3cc(Cl)c4cc(N5C[C@H](C)NC6(CC6)C5)cnc4n3)cc(C)c2n1 [Compound 400] , thanks.
100 to 1000 nM

Need IC50 of Cc1c(O)c(-c2cc(Cl)c3cc(N4C[C@H](C)NC5(CC5)C4)cnc3n2)cc2cn(C)nc12 [Compound 398] , thanks.
< 100 nM

====

# Tested on: K562 cells
# Assay text: Cell viability, Cell Titer Glo 2.0 assay, K562
# Applied conditions: 72 hours
Where a name gives a salt, the structure may show the parent alone.
Readout kind: Effect on Cell Viability, K562

Known results for compounds:
{"columns": ["Compound", "Effect on Cell Viability, K562"],
 "data": [
  ["Cn1cc2cc(-c3ccc4cc(N5CC[C@H](NCC6CC6)C5)cnc4n3)c(O)c(F)c2n1", "A (<100 nM)"],
  ["CCNC1CCN(c2cnc3nc(-c4cc5cn(C)nc5c(C)c4O)ccc3c2)C1 (stereo not shown)", "A (<100 nM)"],
  ["CN(c1cnc2nc(-c3cc4cn(C)nc4c(F)c3O)cc(Cl)c2c1)[C@H]1CCNC1", "A (<100 nM)"],
  ["Cn1cc2cc(-c3cc(Cl)c4cc(N5CCNC6(CC6)C5)cnc4n3)c(O)c(F)c2n1", "B (100-1000 nM)"],
  ["C[C@@H]1CN(c2cnc3nc(-c4cc(F)c5nn(C)cc5c4)cc(Cl)c3c2)C[C@@H](C)N1", "B (100-1000 nM)"]
]}

Need Effect on Cell Viability, K562 of `Cc1c(O)c(-c2ccc3nc(N4C[C@@H](C)N[C@@H](C)C4)cnc3n2)cc2cn(C)nc12` , thanks.
B (100-1000 nM)

Need Effect on Cell Viability, K562 of C[C@@H]1CN(c2cnc3nc(-c4cc5cn(C)nc5cc4O)cc(C4CC4)c3c2)C[C@H](C)N1 [Compound 364, hydrochloride] , thanks.
C (1000-9999 nM)

Need Effect on Cell Viability, K562 of `CN(C)C1CCN(c2ccc3nc(-c4cc5cn(C)nc5c(F)c4O)cnc3c2)CC1` , thanks.
B (100-1000 nM)

Need Effect on Cell Viability, K562 of `CN[C@@H]1CN(c2cnc3nc(-c4cc5cn(C)nc5c(C)c4O)ccc3c2)C[C@@H]1F` , thanks.
B (100-1000 nM)

Need Effect on Cell Viability, K562 of `Cc1c(O)c(-c2ccc3c(C(F)(F)F)c(N4CCNCC4)cnc3n2)cc2cn(C)nc12` , thanks.
B (100-1000 nM)

Need Effect on Cell Viability, K562 of Cc1c(O)c(-c2ccc3cc(N4CCC(NCC5CC5)C4)cnc3n2)cc2cn(C)nc12 (stereo not shown) [Compound 105] , thanks.
A (<100 nM)

Need Effect on Cell Viability, K562 of `Cn1cc2cc(-c3ccc4cc(N5CC[C@@H](NCC6CC6)C5)cnc4n3)c(O)cc2n1` , thanks.
B (100-1000 nM)

Need Effect on Cell Viability, K562 of `CN[C@@H]1CN(c2cnc3nc(-c4cc5cn(C)nc5c(C)c4O)ccc3c2)C[C@H]1C` , thanks.
B (100-1000 nM)

Need Effect on Cell Viability, K562 of `C[C@@H]1CN(c2cnc3nc(-c4ccc5nn(C)cc5c4)cc(Cl)c3c2)C[C@H](C)N1` , thanks.
C (1000-9999 nM)

Need Effect on Cell Viability, K562 of `CN(c1cnc2nc(-c3cc(F)c4nn(C)cc4c3)ccc2c1)[C@@H]1CCNC1` , thanks.
C (1000-9999 nM)
